Hello, the source for this data is patent US7541169B2, in case you need it.

Test system: SULT1C1
assayComment: SULT1C1 enzyme activity assay: sulfate conjugation of 4-nitrophenol with 35S-PAPS, COS-1 cytosol of recombinant allozymes
Format: biochemical, human
conditionParameters: recombinant allozyme in COS-1 cytosol; 10 mM 4-NP, 0.4 μM 35S-PAPS, pH 7.4; percentage of wild type SULT1C1 enzyme activity
quantity: % WT activity

INSERT INTO results (molecule, datavalue) VALUES
  ('Phe193Leu: SULT1C1 polypeptide having a leucine residue at amino acid 193 in place of a phenylalanine (protein) MALTSDLGKQIKLKEVEGTLLQPATVDNWSQIQSFEAKPDDLLICTYPKAGTTWIQEIVDMIEQNGDVEKCQRAIIQHRHPFIEWARPPQPSGVEKAKAMPSPRILKTHLSTQLLPPSFWENNCKFLYVARNAKDCMVSYYHFQRMNHMLPDPGTWEEYFETFINGKVVWGSWFDHVKGWWEMKDRHQILFLLYEDIKRDPKHEIRKVMQFMGKKVDETVLDKIVQETSFEKMKENPMTNRSTVSKSILDQSISSFMRKGTVGDWKNHFTVAQNERFDEIYRRKMEGTSINFCMEL', '39.3 ± 1.4%'),
  ('Ser255Ala: SULT1C1 polypeptide having an alanine at amino acid 255 in place of a serine (protein) MALTSDLGKQIKLKEVEGTLLQPATVDNWSQIQSFEAKPDDLLICTYPKAGTTWIQEIVDMIEQNGDVEKCQRAIIQHRHPFIEWARPPQPSGVEKAKAMPSPRILKTHLSTQLLPPSFWENNCKFLYVARNAKDCMVSYYHFQRMNHMLPDPGTWEEYFETFINGKVVWGSWFDHVKGWWEMKDRHQILFLFYEDIKRDPKHEIRKVMQFMGKKVDETVLDKIVQETSFEKMKENPMTNRSTVSKSILDQSISAFMRKGTVGDWKNHFTVAQNERFDEIYRRKMEGTSINFCMEL', '98.9 ± 5.9%'),
  ('Arg73Gln: SULT1C1 polypeptide having a glutamine at amino acid residue 73 in place of an arginine (protein) MALTSDLGKQIKLKEVEGTLLQPATVDNWSQIQSFEAKPDDLLICTYPKAGTTWIQEIVDMIEQNGDVEKCQQAIIQHRHPFIEWARPPQPSGVEKAKAMPSPRILKTHLSTQLLPPSFWENNCKFLYVARNAKDCMVSYYHFQRMNHMLPDPGTWEEYFETFINGKVVWGSWFDHVKGWWEMKDRHQILFLFYEDIKRDPKHEIRKVMQFMGKKVDETVLDKIVQETSFEKMKENPMTNRSTVSKSILDQSISSFMRKGTVGDWKNHFTVAQNERFDEIYRRKMEGTSINFCMEL', '14.5 ± 1.9%');
